biological target: rPpAChE1 (Phlebotomus papatasi); construct: cell lysate assayed; assay: biochemical
Mark Met for IC50 under 40 nM, Not met if at or over.

The following compounds have reported results that may help.
INSERT INTO assay_data (compound, classlabel) VALUES
  ('CC[n+]1c(-c2ccccc2)c2cc(N)ccc2c2ccc(N)cc21 [Ethidium Bromide]', 'Not met'),
  ('CNC(=O)Oc1cccc2c1OC(C)(C)C2 [Carbofuran]', 'Met'),
  ('CNC(=O)Oc1cccc(C(C)(C)C)c1 [compound 2, 3-(tert-butyl)phenyl methylcarbamate]', 'Met'),
  ('CCOC(=O)CC(SP(=O)(OC)OC)C(=O)OCC (centres unmarked) [Malaoxon]', 'Met'),
  ('COc1cc2c3cc1Oc1cc(ccc1O)C[C@@H]1c4c(cc(OC)c(O)c4Oc4ccc(cc4)C[C@@H]3N(C)CC2)CC[N+]1(C)C [Tubocurarine]', 'Not met');

Task item: Does this compound meet the criterion IC50 < 40 nM? CCC(C)n1cc(OC(=O)NC)cn1 (centres unmarked) [compound 3]
Reply: Met

----------
biological target: rPpAChE1 (Phlebotomus papatasi); construct: cell lysate assayed; assay: biochemical
readoutKind: IC50 (nM)
Give bare numbers, in nM.

INSERT INTO measurements (smilesdata, assaysystem, readoutkind, unitannotation, readoutnumber) VALUES
  ('Nc1c2c(nc3ccccc13)CCCC2', 'rPpAChE1 (Phlebotomus papatasi)', 'IC50', 'nM', 67),
  ('CNC(=O)Oc1cnn(CCC(C)C)c1', 'rPpAChE1 (Phlebotomus papatasi)', 'IC50', 'nM', 75),
  ('CNC(=O)Oc1ccccc1OC(C)C', 'rPpAChE1 (Phlebotomus papatasi)', 'IC50', 'nM', 220),
  ('CNC(=O)Oc1ccc2c(c1)[C@]1(C)CCN(C)[C@@H]1N2C', 'rPpAChE1 (Phlebotomus papatasi)', 'IC50', 'nM', 3.2);

Here is another compound to look at.
Task item: Field request: IC50 | item: "CNC(=O)Oc1cnn(CC(C)C)c1"
Reply: 76

All figures here come from paper PMC4268798.
